Cited source: ChEMBL document CHEMBL1122545

# METHOD: Diuretic activity was determined expressed as Na+(sodium) excreted in milli equivalents was reported for a duration of 5 hours after administration of a dose of 100 mg/Kg
# Format: ADME, Urine
# CONDITION_PARAMETERS: in vivo
ENDPOINT: Diuretic activity (m equiv)

// solved cases for Diuretic activity follow
CN(C)/C=N/c1c(Cl)cc(NCc2ccccc2O)cc1Cl	0.72
CN(C)/C=N/c1c(Cl)cc(NCc2cccc(F)c2)cc1Cl	1.93
COc1ccc(CNc2cc(Cl)c(/N=C/N(C)C)c(Cl)c2)cc1F	1.15
COc1ccc(CNc2cc(Cl)c(/N=C/N(C)C)c(Cl)c2)cc1OC	0.47
NS(=O)(=O)c1cc2c(cc1Cl)NCNS2(=O)=O [HYDROCHLOROTHIAZIDE]	1.63

P: CN(C)/C=N/c1c(Cl)cc(NCc2ccc(-c3ccccc3)cc2)cc1Cl
Q: CN(C)/C=N/c1c(Cl)cc(NCc2cccc(Br)c2)cc1Cl
R: CC(=O)Nc1ccc(CNc2cc(Cl)c(/N=C/N(C)C)c(Cl)c2)cc1
Order the 3 compounds from highest to lowest Diuretic activity. // format: requested-order list of labels Q, R, P
(Q: 1.9 m equiv, R: 0.66 m equiv, P: 0.46 m equiv)

a: COc1cc(CNc2cc(Cl)c(/N=C/N(C)C)c(Cl)c2)cc(OC)c1OC
b: CN(C)/C=N/c1c(Cl)cc(NCc2cccc(C(F)(F)F)c2)cc1Cl
Form: Entry with minimum Diuretic activity (choose one): a / b Your answer should be the label attached to the chosen record. a
